biological target: c-Met kinase (Homo sapiens, UniProt P08581); construct: purchased Invitrogen PV3143; experiment: Inhibitory activity of compound to c-Met kinases (Z'-LYTE kinase assay kit); type: biochemical; settings: Tyr 6 substrate peptide, read-out: Strength of activity (inhibition on c-Met kinase, IC50)
Sequence (P08581 25-1390): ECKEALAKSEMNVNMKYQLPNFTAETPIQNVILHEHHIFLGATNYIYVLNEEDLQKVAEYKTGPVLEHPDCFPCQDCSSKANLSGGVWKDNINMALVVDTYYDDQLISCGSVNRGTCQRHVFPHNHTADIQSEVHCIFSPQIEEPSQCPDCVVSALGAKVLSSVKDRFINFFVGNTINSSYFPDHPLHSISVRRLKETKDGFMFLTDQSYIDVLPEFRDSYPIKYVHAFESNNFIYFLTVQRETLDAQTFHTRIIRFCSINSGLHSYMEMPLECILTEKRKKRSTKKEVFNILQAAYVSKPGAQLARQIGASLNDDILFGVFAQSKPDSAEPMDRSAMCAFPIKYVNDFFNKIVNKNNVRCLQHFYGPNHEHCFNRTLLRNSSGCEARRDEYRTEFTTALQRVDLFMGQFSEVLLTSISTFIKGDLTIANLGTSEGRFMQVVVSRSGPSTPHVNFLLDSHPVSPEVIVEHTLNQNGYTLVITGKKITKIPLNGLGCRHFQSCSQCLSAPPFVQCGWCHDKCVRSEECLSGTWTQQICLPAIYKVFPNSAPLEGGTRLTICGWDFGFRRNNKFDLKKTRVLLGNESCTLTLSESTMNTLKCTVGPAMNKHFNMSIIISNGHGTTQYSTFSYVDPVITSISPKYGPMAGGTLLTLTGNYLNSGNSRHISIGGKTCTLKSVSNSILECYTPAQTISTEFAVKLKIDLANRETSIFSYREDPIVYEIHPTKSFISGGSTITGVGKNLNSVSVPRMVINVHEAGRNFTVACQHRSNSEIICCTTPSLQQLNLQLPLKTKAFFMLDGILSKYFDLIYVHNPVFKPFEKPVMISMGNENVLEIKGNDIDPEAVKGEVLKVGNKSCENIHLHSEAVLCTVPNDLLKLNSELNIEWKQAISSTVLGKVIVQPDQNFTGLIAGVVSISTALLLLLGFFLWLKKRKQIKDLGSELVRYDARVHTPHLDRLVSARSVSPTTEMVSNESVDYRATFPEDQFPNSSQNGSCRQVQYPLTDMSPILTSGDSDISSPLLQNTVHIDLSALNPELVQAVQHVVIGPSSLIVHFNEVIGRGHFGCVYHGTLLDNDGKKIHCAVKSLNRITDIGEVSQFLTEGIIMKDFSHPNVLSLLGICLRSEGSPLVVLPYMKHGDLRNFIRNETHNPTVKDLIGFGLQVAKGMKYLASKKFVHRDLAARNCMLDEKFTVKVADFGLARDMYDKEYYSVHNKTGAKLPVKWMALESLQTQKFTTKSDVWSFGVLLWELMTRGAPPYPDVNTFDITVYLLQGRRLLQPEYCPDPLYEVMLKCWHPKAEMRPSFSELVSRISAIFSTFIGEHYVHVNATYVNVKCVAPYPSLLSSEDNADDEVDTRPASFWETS
pIC50: −log10 of the molar value.
assay.endpoint: pIC50

# line.notation, pIC50
records = [
    ("COc1cc2c(Oc3ccc(NC(=O)c4cc5c(n(-c6ccc(F)cc6)c4=O)OCCN5C)cc3F)ccnc2cc1OCCCN1CCOCC1", "6.00 to 7.00"),
    ("COc1ccc2c(Oc3ccc(NC(=O)c4cc5c(n(-c6ccc(F)cc6)c4=O)OCCN5C)cc3F)ccnc2c1", "> 8.00"),
    ("Cn1cnc(-c2cc3nccc(Oc4ccc(NC(=O)c5cc6ncsc6n(-c6ccc(F)cc6)c5=O)cc4F)c3s2)c1", "7.00 to 8.00"),
    ("CN(CCO)c1c(C(=O)Nc2ccc(Oc3ccnc4[nH]ccc34)c(F)c2)c(=O)n(-c2ccc(F)cc2)c2scnc12", "6.00 to 7.00"),
    ("CN(C)c1c(C(=O)Nc2ccc(Oc3ccnc(N)c3Cl)c(F)c2)c(=O)n(-c2ccc(F)cc2)c2scnc12", "> 8.00"),
]

QUERY: Consider the compound Cn1ncc2cc(C(=O)Nc3ccc(Oc4ccnc5[nH]ccc45)c(F)c3)c(=O)n(-c3ccc(F)cc3)c21 tested on c-Met kinase (Homo sapiens, UniProt P08581); state its pIC50.
RESULT: 7.00 to 8.00
